biological target: LXRβ (Homo sapiens, UniProt P55055); construct: Co-transfection expression plasmids, comprising full-length LXRα (pCMX-h LXRα or LXRβ (pCMX-hLXRβ)); expressed in transfected cells; host or cells: CV-1 African green monkey kidney cells, transient transfection with pCMX-hLXRβ; test: LXR/LXRE co-transfection assay (luciferase reporter) in CV-1 cells, LXRβ; type: cell-based; details: CV-1 cells, relative to maximum response of high control N-(3-((4-fluorophenyl)-(naphthalene-2-sulfonyl)amino)propyl)-2,2-dimethylpropionamide
Sequence (P55055 whole entry): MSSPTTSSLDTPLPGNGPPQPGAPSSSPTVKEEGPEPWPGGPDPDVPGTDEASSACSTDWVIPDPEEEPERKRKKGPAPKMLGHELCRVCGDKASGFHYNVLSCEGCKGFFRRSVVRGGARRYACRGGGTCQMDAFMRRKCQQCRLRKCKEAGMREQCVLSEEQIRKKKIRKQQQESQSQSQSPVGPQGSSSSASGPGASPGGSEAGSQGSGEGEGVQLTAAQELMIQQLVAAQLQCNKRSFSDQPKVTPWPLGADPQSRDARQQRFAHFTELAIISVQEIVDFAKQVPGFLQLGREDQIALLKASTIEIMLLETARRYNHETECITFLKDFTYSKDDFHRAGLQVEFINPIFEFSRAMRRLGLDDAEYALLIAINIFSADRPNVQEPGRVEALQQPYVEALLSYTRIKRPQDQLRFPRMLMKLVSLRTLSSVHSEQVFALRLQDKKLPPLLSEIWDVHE
Sequence (P19793 whole entry partner): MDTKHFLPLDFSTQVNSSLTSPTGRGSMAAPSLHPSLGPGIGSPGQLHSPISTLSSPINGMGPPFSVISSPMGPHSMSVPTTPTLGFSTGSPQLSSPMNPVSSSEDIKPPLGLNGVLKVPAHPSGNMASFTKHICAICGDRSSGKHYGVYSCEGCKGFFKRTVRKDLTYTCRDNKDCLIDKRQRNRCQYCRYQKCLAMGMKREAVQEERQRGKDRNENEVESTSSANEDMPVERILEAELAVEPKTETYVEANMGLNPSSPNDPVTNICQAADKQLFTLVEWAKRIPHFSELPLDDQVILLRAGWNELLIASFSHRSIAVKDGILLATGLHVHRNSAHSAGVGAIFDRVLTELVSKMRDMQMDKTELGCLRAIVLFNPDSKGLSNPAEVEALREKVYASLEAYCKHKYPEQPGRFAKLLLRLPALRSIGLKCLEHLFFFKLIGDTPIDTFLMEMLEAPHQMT
reported_metric: LXRbeta % EFFICACY (%)

Solved entries (count: 2):
# compound, LXRbeta % EFFICACY [%]
data = [
    ("Cc1nc(-c2ccc3c(c2)OC(F)(F)O3)c(-c2cc(-c3cccc(S(C)(=O)=O)c3)ccc2-c2cc(C(C)O)nn2C)o1 (stereo not shown) [Example 102]", 96),
    ("Cc1nc(-c2ccc3c(c2)OC(F)(F)O3)c(-c2cc(-c3cc(F)c(CO)c(S(C)(=O)=O)c3)ccc2-c2cc(C(C)(C)C#N)nn2C)o1", 79),
]

(1) Cc1nc(-c2ccc3c(c2)OC(F)(F)O3)c(-c2cc(-c3cccc(S(C)(=O)=O)c3)ccc2-c2cc(C(C)C#N)nn2C)o1 (stereo not shown) [Example 116]
(2) Cc1nc(-c2ccc3c(c2)OC(F)(F)O3)c(-c2cc(-c3cccc(S(C)(=O)=O)c3)ccc2-c2cc(C(C)O)nn2C)o1 (stereo not shown) [Example 101]
Exam item: I'm curious, which of these has a smaller LXRbeta % EFFICACY number: 1 or 2 ? // respond with label for picked entry
Marked response: 2
